# assaySystem: T1, human GIP receptor (human) (UniProt P48546)
# T1 sequence (looked up): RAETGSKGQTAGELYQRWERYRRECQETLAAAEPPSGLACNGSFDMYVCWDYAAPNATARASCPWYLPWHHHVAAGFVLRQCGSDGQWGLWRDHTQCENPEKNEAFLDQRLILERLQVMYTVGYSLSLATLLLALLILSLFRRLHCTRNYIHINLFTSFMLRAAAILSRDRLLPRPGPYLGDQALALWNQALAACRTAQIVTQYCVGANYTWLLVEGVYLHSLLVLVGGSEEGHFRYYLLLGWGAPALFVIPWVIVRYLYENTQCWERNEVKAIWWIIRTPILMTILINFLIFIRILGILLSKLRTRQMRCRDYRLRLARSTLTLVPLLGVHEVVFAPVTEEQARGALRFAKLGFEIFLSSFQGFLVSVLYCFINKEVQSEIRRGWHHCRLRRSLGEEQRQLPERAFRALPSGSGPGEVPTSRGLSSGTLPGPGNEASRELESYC
# experimentalProtocol: cell-based or functional assay
Binary label based on Relative cAMP EC50 with cut-off 0.1 nM: below gives label 1, not below gives label 0.

| binder | labelClass |
| --- | --- |
| YXQGTXTSDXSIXLDXKAQXEFIEXLIEGGPSSGAPPPSGE (non-natural residues, acylated Lys, C-terminal amide; synthetic construct; SITE 2: note = 2-Aminoisobutyric Acid; SITE 6: note = alpha-methyl-2-fluoro-L-phenylalanine; SITE 10: note = 3-(4-Pyridyl)-L-alanine; SITE 13: note = alpha-methyl-leucine; SITE 16: note = L-ornithine; SITE 17: note = Lysine is chemically modified through conjugation of the epsil) [Example 614] | label 1 |
| YXQGTXTSDXSIXLDKKAQXAFIEYLEEGGPSSGAPPPE (synthetic construct; SITE 2: note = 2-Aminoisobutyric Acid; SITE 6: note = alpha-methyl-2-fluoro-L-phenylalanine; SITE 10: note = 3-(4-Pyridyl)-L-alanine; SITE 13: note = alpha-methyl-leucine; SITE 17: note = Lysine is chemically modified through conjugation of the epsilon-amino group of the Lysine) [Example 445] | label 1 |
| YXQGTFTSDXSXXLDKKAQXAFIEYLIAGGPSSGAPPPSGSEE (synthetic construct; SITE 2: note = 2-Aminoisobutyric Acid; SITE 10: note = 3-(4-Pyridyl)-L-alanine; SITE 12: note = L-ornithine; SITE 13: note = alpha-methyl-leucine; SITE 17: note = Lysine is chemically modified through conjugation of the epsilon-amino group of the Lysine side chain with (gamma-Gl)) [Example 961] | label 0 |
| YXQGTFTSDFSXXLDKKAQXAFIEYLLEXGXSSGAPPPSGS (Aib, Orn, αMeL, 4Pal; AEEA-γGlu-C18 diacid on Lys; amide; synthetic construct; SITE 2: note = 2-Aminoisobutyric Acid; SITE 12: note = L-ornithine; SITE 13: note = alpha-methyl-leucine; SITE 17: note = Lysine is chemically modified through conjugation of the epsilon-amino group of the Lysine side chain with (2-[2-(2-Amino-ethoxy)-ethoxy]-acetyl)-(gamma-Glu)) [Example 242] | label 1 |
| YXQGTFTSDFSRXLDKKAQXAFIEYLLEXGPSSGAPPPGGS (Aib, αMeL; acylated Lys; C-terminal amide; synthetic construct; SITE 2: note = 2-Aminoisobutyric Acid; SITE 13: note = alpha-methyl-leucine; SITE 17: note = Lysine is chemically modified through conjugation of the epsilon-amino group of the Lysine side chain with (2-[2-(2-Amino-ethoxy)-ethoxy]-acetyl)-(gamma-Glu)-CO-(CH2) 18-CO2H; SITE 20: n) [Example 42] | label 0 |
